TARGET_OR_SYSTEM: Voltage-gated inwardly rectifying potassium channel KCNH2 (Homo sapiens) (UniProt Q12809)
Sequence (Q12809 whole entry, looked up): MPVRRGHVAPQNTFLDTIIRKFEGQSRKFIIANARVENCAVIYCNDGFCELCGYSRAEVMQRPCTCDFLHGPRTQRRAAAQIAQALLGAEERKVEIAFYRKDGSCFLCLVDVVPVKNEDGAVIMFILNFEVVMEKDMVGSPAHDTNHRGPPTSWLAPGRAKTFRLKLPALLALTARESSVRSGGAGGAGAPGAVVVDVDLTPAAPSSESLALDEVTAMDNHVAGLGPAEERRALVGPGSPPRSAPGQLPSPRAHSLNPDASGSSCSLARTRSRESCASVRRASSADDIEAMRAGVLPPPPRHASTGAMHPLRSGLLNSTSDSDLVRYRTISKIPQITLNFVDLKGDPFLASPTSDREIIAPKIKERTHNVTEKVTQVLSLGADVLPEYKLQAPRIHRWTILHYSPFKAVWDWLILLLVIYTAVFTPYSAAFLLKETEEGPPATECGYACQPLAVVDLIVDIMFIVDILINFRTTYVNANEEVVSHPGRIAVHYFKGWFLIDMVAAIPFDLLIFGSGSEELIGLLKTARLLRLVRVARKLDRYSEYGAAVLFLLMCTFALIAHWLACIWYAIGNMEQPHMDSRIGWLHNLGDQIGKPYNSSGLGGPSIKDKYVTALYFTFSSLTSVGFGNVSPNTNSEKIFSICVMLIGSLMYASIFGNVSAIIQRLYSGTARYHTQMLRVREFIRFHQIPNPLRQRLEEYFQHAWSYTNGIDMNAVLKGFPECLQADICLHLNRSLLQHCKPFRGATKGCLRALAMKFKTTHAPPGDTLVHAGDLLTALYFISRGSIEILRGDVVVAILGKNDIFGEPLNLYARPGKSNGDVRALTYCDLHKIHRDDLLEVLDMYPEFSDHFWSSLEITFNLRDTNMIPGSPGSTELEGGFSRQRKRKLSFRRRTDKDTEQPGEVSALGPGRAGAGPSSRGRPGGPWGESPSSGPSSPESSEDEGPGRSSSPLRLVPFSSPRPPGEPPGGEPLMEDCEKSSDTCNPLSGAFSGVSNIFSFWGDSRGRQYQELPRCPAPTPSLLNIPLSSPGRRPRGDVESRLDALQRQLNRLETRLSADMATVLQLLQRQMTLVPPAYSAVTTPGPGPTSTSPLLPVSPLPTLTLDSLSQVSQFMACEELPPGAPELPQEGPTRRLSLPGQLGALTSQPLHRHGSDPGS
ASSAY_NAME: Human Ether-a-go-go-Related Gene (hERG) channel small molecule antagonists: fluorescence cell-based qHTS assay (AID 1671200); note: nearly all actives have a fitted effect of over 50% in size; note: potency is the fitted concentration of half-maximal effect
APPLIED_CONDITIONS: hERG-U2OS cells, FluxOR thallium flux fluorescence; series mostly up to 76.8 µM
Inconclusive results are not listed. The source made the active and inactive calls. Calls come from the whole dose curve; as a rule, active = well fitted inhibition curve with a large enough effect in the repeat runs; inconclusive = weak or mixed curves; inactive = flat fitted curve, though single readings scatter.
ENDPOINT_LABEL: Potency

Take a look at these entries with their results.
- SUBSTANCE_SMILES: "CCCCCCCCCCOC(=O)c1ccccc1C(=O)OCCCCCCCC"
  TARGET_OR_SYSTEM: "Voltage-gated inwardly rectifying potassium channel KCNH2 (Homo sapiens) (UniProt Q12809)"
  Potency: "inactive"
- SUBSTANCE_SMILES: "COC(=O)c1ccccc1OC"
  TARGET_OR_SYSTEM: "Voltage-gated inwardly rectifying potassium channel KCNH2 (Homo sapiens) (UniProt Q12809)"
  Potency: "inactive"
- SUBSTANCE_SMILES: "COc1cccc2c1C(=O)c1c(O)c3c(c(O)c1C2=O)C[C@@](O)(C(C)=O)C[C@@H]3O[C@H]1C[C@H](N)[C@H](O)[C@H](C)O1"
  TARGET_OR_SYSTEM: "Voltage-gated inwardly rectifying potassium channel KCNH2 (Homo sapiens) (UniProt Q12809)"
  Potency: "inactive"
- SUBSTANCE_SMILES: "OCCN1CCN(CCCN2c3ccccc3Sc3ccc(C(F)(F)F)cc32)CC1"
  TARGET_OR_SYSTEM: "Voltage-gated inwardly rectifying potassium channel KCNH2 (Homo sapiens) (UniProt Q12809)"
  Potency: "3.38 µM (active)"
- SUBSTANCE_SMILES: "Nc1ccc(NCCO)c([N+](=O)[O-])c1"
  TARGET_OR_SYSTEM: "Voltage-gated inwardly rectifying potassium channel KCNH2 (Homo sapiens) (UniProt Q12809)"
  Potency: "inactive"

// below: Potency requested for another molecule
Determine reported Potency for `COC(C)=O` ; test system: Voltage-gated inwardly rectifying potassium channel KCNH2 (Homo sapiens) (UniProt Q12809).
inactive

Value source: PubChem BioAssay (Tox21)
